- assayProcedure: NCI Yeast Anticancer Drug Screen. Data for the mlh1 rad18 strain (AID 175)
- experimentalContext: S. cerevisiae mlh1 rad18 strain growth inhibition; at 50.0 µM; active compounds read high
About 79,000 compounds went through this panel and 15% of them were active in at least one assay; those are over-represented in the sample as a whole.
We use 20% as the dividing line for growth inhibition: on or above the line is Y, below is N.

Asked: Textbook exercise: given the entry CC(=O)/C(=C/n1c(=S)sc2ccccc21)C(=O)Nc1ccccc1C , state whether its growth inhibition is greater than or equal to 20%.
Given back: Y

Asked: growth inhibition >= 20% for O=C(O)c1ccc(NC(NC(=O)C(C(F)(F)F)C(F)(F)F)(C(F)(F)F)C(F)(F)F)cc1 ?
Given back: N

Asked: Could you tell me if the measured growth inhibition of CC1(C)C2CCC(OC(=O)c3ccc([N+](=O)[O-])cc3)C1C2 (stereo not given) reaches 20% or more?
Given back: N

Asked: Test whether the compound C[Si](C)(C)Nc1ncnc2c1ncn2[Si](C)(C)C records growth inhibition of 20% or higher.
Given back: N

Asked: Please indicate if the recorded growth inhibition for CC1=C(C)CP(=O)(c2ccccc2)C1 meets or exceeds 20%.
Given back: N

Asked: Evaluate Cc1ccc(NC(=O)C2C3CC4OC(=O)C2C4C3)cc1 (stereo not given) : growth inhibition at minimum 20%?
Given back: N

Asked: Given the entry Cc1cc(C)cc(C(=O)OC2CCCC2)c1 , answer whether its growth inhibition meets or surpasses 20%.
Given back: Y

Asked: Record Cc1nc2c(N3CCOCC3)ncnc2o1 ; criterion: growth inhibition no lower than 20%. Met?
Given back: N

Asked: Could you verify whether the entry O=c1c2c3c(sc2nc2n1N=CN(c1ccc(Cl)cc1)C2)CCCC3 shows growth inhibition of no less than 20%?
Given back: N

Asked: Record O=C(Nc1ccc([N+](=O)[O-])cc1)c1cc(N2CCOCC2)ccn1 ; criterion: growth inhibition no lower than 20%. Met?
Given back: Y

Asked: Can COc1ccc(COc2ccc([N+](=O)[O-])cc2)cc1 be said to have growth inhibition at or above 20%?
Given back: N

Asked: Quick check, growth inhibition >= 20%? O=C(COc1ccc(Cl)cc1C(=O)O)NCc1cccc2ccccc12
Given back: Y

Asked: Is growth inhibition at least 20%? Consider CC(C)CN(CC(C)C)C(=O)C1CCCC[C@@H]1C(=O)O (stereo not given in full)
Given back: Y

Asked: In plain terms: is recorded growth inhibition at least 20% for C[N+]1(Cc2ccccc2)CCC(=O)CC1 ?
Given back: N

Asked: Identify whether the reported growth inhibition of the following compound is 20% or greater: CCOc1ncnc2ccc(Cl)c(I)c12
Given back: N

Asked: For this compound, is measured growth inhibition 20% or higher? C/C(=N/NC(=S)Nc1ccccc1Cl)c1cccc(/C(C)=N\NC(=S)Nc2ccccc2Cl)n1
Given back: Y

Asked: Given the entry N#C[C@H]1CC2C=CC1C2 (stereo not given in full) , answer whether its growth inhibition meets or surpasses 20%.
Given back: N

Asked: growth inhibition >= 20% for O=C(O)c1c(CC(Cc2ccc3c(c2)CCCC3)C(=O)O)ccc2c1CCCC2 (stereo not given) ?
Given back: Y

Asked: Given Cc1ccc(S(=O)(=O)NCCC(Cl)(Cl)Cl)cc1 , state whether its growth inhibition is at least 20%.
Given back: Y

Asked: Is reported growth inhibition greater than or equal to 20% here: BrC1Cc2ccccc2C(Br)Cc2ccccc21 (stereo not given)
Given back: N

Asked: Does the compound O=C1NS(=O)(=O)c2cc(Cl)ccc21 have recorded growth inhibition that is 20% or more?
Given back: N

Asked: Could you please find out whether COc1ccc(C=Nc2ccc(Cl)cc2)cc1 has growth inhibition that meets 20% or exceeds it?
Given back: N

Asked: Check the entry CCOC(=O)c1cc(OC(C)=O)c2ccccc2c1 : does growth inhibition equal or exceed 20%?
Given back: Y
